test: Confirmatory qHTS for Inhibitors of ATXN expression; settings: ATXN2-luciferase reporter cells, luminescence, 24 h; series mostly up to 11.5 µM; further: nearly all actives have a fitted effect of over 65% in size; further: potency means the concentration at half of the fitted maximal effect
About 940 (45%) of roughly 2,100 compounds were called active. Inconclusive results (about 48%) are left out. The set was probably picked from earlier hits. The list shows a part of the results.

[
  {
    "COMPOUND": "C/C(=N\\NC(=O)c1cc(C2CC2)nc2ccccc12)c1ccc(O)cc1O",
    "Potency": "3.55 µM (active)"
  },
  {
    "COMPOUND": "CCCCC(=O)NC(c1ccccc1)c1ccc2cccnc2c1O (stereo unspecified)",
    "Potency": "2.82 µM (active)"
  },
  {
    "COMPOUND": "CCN(CC)C(=O)C1=C(C)N(CCC2=CCCCC2)C(=O)C(CC(=O)NC(c2ccccc2)c2ccccc2)C1 (stereo unspecified)",
    "Potency": "inactive"
  },
  {
    "COMPOUND": "O=c1c2c(nc3c(-c4ccc(Cl)cc4)c[nH]n13)CCCC2",
    "Potency": "1.26 µM (active)"
  },
  {
    "COMPOUND": "C/C(=N\\OCC(=O)N/N=C/c1ccccc1O)c1cccs1",
    "Potency": "12.6 µM (active)"
  },
  {
    "COMPOUND": "Nc1ccc(Oc2ccccc2-c2ccccc2)cc1",
    "Potency": "2 µM (active)"
  },
  {
    "COMPOUND": "O=C(N/N=C/c1ccccc1O)C1CCCC1",
    "Potency": "28.2 µM (active)"
  },
  {
    "COMPOUND": "O=C(COc1nsnc1N1CCOCC1)N/N=C/c1ccccc1O",
    "Potency": "14.1 µM (active)"
  },
  {
    "COMPOUND": "CCCc1cc(=O)n2[nH]cc(-c3ccc(Cl)cc3)c2n1",
    "Potency": "2.82 µM (active)"
  },
  {
    "COMPOUND": "O=C(N/N=C/c1ccccc1O)C1SCCCS1",
    "Potency": "14.1 µM (active)"
  },
  {
    "COMPOUND": "Cn1c(-[n+]2c(-c3ccccc3)cc(-c3ccccc3)cc2-c2ccccc2)nc2c([N+](=O)[O-])cccc21",
    "Potency": "inactive"
  }
]

====

experiment: Confirmatory qHTS for Inhibitors of ATXN expression; settings: ATXN2-luciferase reporter cells, luminescence, 24 h; series mostly up to 11.5 µM; further: nearly all actives have a fitted effect of over 65% in size
Among all 2,100 compounds or so, about 940 (45%) were called active. Not shown: some 48% with an inconclusive outcome. Calls come from the whole dose curve; as a rule, active = well fitted inhibition curve with a large enough effect; inconclusive = small, poorly fitted or top-dose-only effect; inactive = no such curve, though single readings can be large or run the other way. The set was probably picked from earlier hits. The list shows a part of the results.
Outcome codes: YES (active), NO (inactive)

[
  {
    "MOLECULE": "Cc1[nH]c(=O)c(C(=O)/C=C/c2ccccc2)c2c1CCCC2",
    "ANSWER LABEL": "YES"
  },
  {
    "MOLECULE": "CC(C)c1ccc(S(=O)(=O)c2cc3cc(Br)ccc3oc2=O)cc1",
    "ANSWER LABEL": "YES"
  },
  {
    "MOLECULE": "C=CCN(C(=O)CSc1nc2c(sc3ccccc32)c(=O)n1CCN(CC)CC)c1ccccc1",
    "ANSWER LABEL": "YES"
  },
  {
    "MOLECULE": "CCOC(=O)c1c(NC(=O)CSc2nnnn2-c2ccccc2)sc2c1CC(C)(C)NC2(C)C",
    "ANSWER LABEL": "YES"
  },
  {
    "MOLECULE": "O=C(CNC(=O)C1COc2ccccc2O1)N/N=C/c1ccc(O)cc1O (configuration not stated)",
    "ANSWER LABEL": "YES"
  },
  {
    "MOLECULE": "CCCC1CCC(c2ccc(C(=O)NN)cc2)CC1 (configuration not stated)",
    "ANSWER LABEL": "YES"
  },
  {
    "MOLECULE": "Cc1cc(C(=O)N/N=C/c2cc(Br)ccc2OC(=O)c2ccccc2Cl)n[nH]1",
    "ANSWER LABEL": "YES"
  },
  {
    "MOLECULE": "CCN(CC)CCNC(=O)CCc1c(C)nc2c(c(C)nn2-c2ccc(C)cc2)c1C",
    "ANSWER LABEL": "YES"
  },
  {
    "MOLECULE": "Cc1sc2nc(CN3CCCC3)nc(N3CCC(C(N)=O)CC3)c2c1C",
    "ANSWER LABEL": "NO"
  },
  {
    "MOLECULE": "O=C(NN=C(c1ccccc1)c1ccccn1)c1ccccc1",
    "ANSWER LABEL": "YES"
  },
  {
    "MOLECULE": "O=C(CSc1nnnn1-c1ccccc1)Nc1nsc(-c2ccccc2)n1",
    "ANSWER LABEL": "NO"
  },
  {
    "MOLECULE": "CCCn1ncc(CN2CCC(C(=O)Nc3cccc(-c4cccc(F)c4)c3)CC2)c1C",
    "ANSWER LABEL": "YES"
  },
  {
    "MOLECULE": "Cn1cc(SCC(=O)Nc2nc3ccccc3s2)c2ccccc21",
    "ANSWER LABEL": "YES"
  },
  {
    "MOLECULE": "O=C(/C=C/c1ccccc1)NC(=S)NNC(=O)c1cnccn1",
    "ANSWER LABEL": "YES"
  },
  {
    "MOLECULE": "O=C(NNC(=O)c1cnccn1)c1ccc(Cl)c(Cl)c1",
    "ANSWER LABEL": "YES"
  },
  {
    "MOLECULE": "COc1cccc(/C=N/NC(=O)c2nc(-c3ccccc3)cc(-c3ccccc3)n2)c1O",
    "ANSWER LABEL": "YES"
  },
  {
    "MOLECULE": "Cc1cc[n+](C(C)C(=O)c2ccc(-c3ccccc3)cc2)cc1 (configuration not stated)",
    "ANSWER LABEL": "YES"
  }
]
